System: E. coli NCTC 13351
Test: MIC of Ceftazidime in presence of test compound, agar dilution (CLSI)
Format: cell-based
Conditions: compound present at 4 mcg/ml, Table 3
Activity of Ceftazidime (MIC) in presence of compound vs 4 µg/mL: less than gives yes; not less than gives no.

compound: O=C1N2C[C@@H](CC[C@@H]2c2nnc(-c3ccco3)o2)N1OS(=O)(=O)[O-].[Na+] (relative stereo)
system-name: E. coli NCTC 13351
qualitative-label: no
--
compound: CCc1nnc([C@H]2CC[C@@H]3CN2C(=O)N3OS(=O)(=O)[O-])o1.[Na+] (relative stereo)
system-name: E. coli NCTC 13351
qualitative-label: no
--
compound: NC(=O)c1cccc(-c2nnc([C@H]3CC[C@@H]4CN3C(=O)N4OS(=O)(=O)O)o2)n1.[Na] (relative stereo)
system-name: E. coli NCTC 13351
qualitative-label: yes
--
compound: O=C(c1nnc([C@H]2CC[C@@H]3CN2C(=O)N3OS(=O)(=O)[O-])o1)N1CCOCC1.[Na+] (relative stereo)
system-name: E. coli NCTC 13351
qualitative-label: yes
--
compound: O=C1N2C[C@@H](CC[C@@H]2c2nnc(-c3cn4c(n3)COCC4)o2)N1OS(=O)(=O)O.[Na] (relative stereo)
system-name: E. coli NCTC 13351
qualitative-label: no
--
compound: O=C1N2C[C@@H](CC[C@@H]2c2nnc(CN3CCOCC3)o2)N1OS(=O)(=O)O.[Na] (relative stereo)
system-name: E. coli NCTC 13351
qualitative-label: yes
--
compound: NC(=O)c1nnc([C@H]2CC[C@@H]3CN2C(=O)N3OS(=O)(=O)O)o1.[Na] (relative stereo)
system-name: E. coli NCTC 13351
qualitative-label: yes
--
compound: O=C1N2C[C@@H](CC[C@@H]2c2nnc(C(F)(F)F)o2)N1OS(=O)(=O)[O-].[Na+] (relative stereo)
system-name: E. coli NCTC 13351
qualitative-label: no
--
compound: O=C1N2C[C@@H](CC[C@@H]2c2nnc(-c3ccccn3)o2)N1OS(=O)(=O)[O-].[Na+] (relative stereo)
system-name: E. coli NCTC 13351
qualitative-label: no
--
compound: O=C1N2C[C@@H](CC[C@@H]2c2nnc(-c3ccccc3)o2)N1OS(=O)(=O)O.[Na] (relative stereo)
system-name: E. coli NCTC 13351
qualitative-label: no

Values from patent US9127004B2
